Test system: RKOE6
Protocol notes: OncoPanel cell proliferation assay, RKOE6
Reported conditions: Homo sapiens, RKOE6, read-out: Cell Count EC50
pEC50: −log10 of the molar value.
Recorded measurements of pEC50, one per entry
Value type: pEC50

1. CO[C@H]1C[C@@H]2CC[C@@H](C)[C@@](O)(O2)C(=O)C(=O)N2CCCC[C@H]2C(=O)O[C@H]([C@H](C)C[C@@H]2CC[C@@H](O)[C@H](OC)C2)CC(=O)[C@H](C)/C=C(\C)[C@@H](O)[C@@H](OC)C(=O)[C@H](C)C[C@H](C)/C=C/C=C/C=C/1C [Rapamycin, reference compound] : 10.08
2. CN[C@@H]1C[C@H]2O[C@@](C)([C@@H]1OC)n1c3ccccc3c3c4c(c5c6ccccc6n2c5c31)C(=O)NC4 [Staurosporine, reference compound] : 7.77
3. CO[C@H]1C[C@@H]2CC[C@@H](C)[C@@](O)(O2)C(=O)C(=O)N2CCCC[C@H]2C(=O)O[C@H]([C@H](C)C[C@H]2C[C@H]3C[C@@H]2C[C@@H]3O)CC(=O)[C@H](C)/C=C(\C)[C@@H](O)[C@@H](OC)C(=O)[C@H](C)C[C@H](C)/C=C/C=C/C=C/1C [Formula II] : 8.95

---

Tested on: U-138MG
Protocol notes: OncoPanel cell proliferation assay, U-138MG
Format: cell-based, human
Reported conditions: Homo sapiens, U138-MG; U-138MG; read-out: Cell Count EC50
Procedure: Cells were grown in RPMI 1640, 10% FBS, 2 mM L-alanyl-L-glutamine, 1 mM Na pyruvate, or a special medium. Cells were seeded into 384-well plates and incubated in a humidified atmosphere of 5% CO2 at 37° C. […] After a 3-day incubation period, cells were fixed and stained to allow fluorescence imaging of nuclei. […] Automated fluorescence microscopy was carried out using a Molecular Devices ImageXpress Micro XL high-content imager, and images were collected with a 4× objective. […]
pEC50: −log10 of the molar value.
Value type: pEC50

1) CO[C@H]1C[C@@H]2CC[C@@H](C)[C@@](O)(O2)C(=O)C(=O)N2CCCC[C@H]2C(=O)O[C@H]([C@H](C)C[C@H]2C[C@H]3C[C@@H]2C[C@@H]3O)CC(=O)[C@H](C)/C=C(\C)[C@@H](O)[C@@H](OC)C(=O)[C@H](C)C[C@H](C)/C=C/C=C/C=C/1C [Formula II] : 8.84
2) CO[C@H]1C[C@@H]2CC[C@@H](C)[C@@](O)(O2)C(=O)C(=O)N2CCCC[C@H]2C(=O)O[C@H]([C@H](C)C[C@@H]2CC[C@@H](O)[C@H](OC)C2)CC(=O)[C@H](C)/C=C(\C)[C@@H](O)[C@@H](OC)C(=O)[C@H](C)C[C@H](C)/C=C/C=C/C=C/1C [Rapamycin, reference compound] : 10.44
3) CN[C@@H]1C[C@H]2O[C@@](C)([C@@H]1OC)n1c3ccccc3c3c4c(c5c6ccccc6n2c5c31)C(=O)NC4 [Staurosporine, reference compound] : 9.07

---

Protocol notes: Pharmacokinetics in male Sprague Dawley rats (intravenous and oral)
Assay type: in vivo, rat
Reported conditions: rat, blood; male Sprague Dawley rats; single bolus oral dose of 10 mg/kg; read-out: Cmax
Value type: Cmax (ng/mL)

1) CO[C@H]1C[C@@H]2CC[C@@H](C)[C@@](O)(O2)C(=O)C(=O)N2CCCC[C@H]2C(=O)O[C@H]([C@H](C)C[C@H]2C[C@H]3C[C@@H]2C[C@@H]3O)CC(=O)[C@H](C)/C=C(\C)[C@@H](O)[C@@H](OC)C(=O)[C@H](C)C[C@H](C)/C=C/C=C/C=C/1C [Formula II] : 206
